conditions: in NMP, 308.15 K
readoutKind: solubility (mole fraction)

smilesnotation=O=[N+]([O-])c1cc([N+](=O)[O-])c(Cl)cc1Cl result=0.4

----------
details: in 1,2-dichloroethane, 323.15 K
readoutKind: solubility (mole fraction)

smilesnotation=O=[N+]([O-])c1cc([N+](=O)[O-])c(Cl)cc1Cl result=0.251

----------
conditions: in n-butanol, 328.15 K
readoutKind: solubility (mole fraction)

smilesnotation=O=[N+]([O-])c1cc([N+](=O)[O-])c(Cl)cc1Cl result=0.025

----------
conditions: in n-butanol, 298.15 K
readoutKind: solubility (mole fraction)

smilesnotation=O=[N+]([O-])c1cc([N+](=O)[O-])c(Cl)cc1Cl readoutnumber=0.00624

----------
settings: in 1,2-dichloroethane, 318.15 K
readoutKind: solubility (mole fraction)

smilesnotation=O=[N+]([O-])c1cc([N+](=O)[O-])c(Cl)cc1Cl readoutkind="solubility (mole fraction)" readoutnumber=0.224

----------
settings: in DMF, 303.15 K
readoutKind: solubility (mole fraction)

smilesnotation=O=[N+]([O-])c1cc([N+](=O)[O-])c(Cl)cc1Cl result=0.308

----------
details: in NMP, 313.15 K
readoutKind: solubility (mole fraction)

smilesnotation=O=[N+]([O-])c1cc([N+](=O)[O-])c(Cl)cc1Cl readoutnumber=0.421

----------
settings: in methanol, 308.15 K
readoutKind: solubility (mole fraction)

smilesnotation=O=[N+]([O-])c1cc([N+](=O)[O-])c(Cl)cc1Cl readoutnumber=0.0135

----------
conditions: in acetone, 303.15 K
readoutKind: solubility (mole fraction)

smilesnotation=O=[N+]([O-])c1cc([N+](=O)[O-])c(Cl)cc1Cl readoutnumber=0.227

----------
conditions: in tetrachloromethane, 308.15 K
readoutKind: solubility (mole fraction)

smilesnotation=O=[N+]([O-])c1cc([N+](=O)[O-])c(Cl)cc1Cl readoutkind="solubility (mole fraction)" readoutnumber=0.0276

----------
settings: in dichloromethane, 283.15 K
readoutKind: solubility (mole fraction)

smilesnotation=O=[N+]([O-])c1cc([N+](=O)[O-])c(Cl)cc1Cl readoutnumber=0.106

----------
settings: in acetonitrile, 298.15 K
readoutKind: solubility (mole fraction)

smilesnotation=O=[N+]([O-])c1cc([N+](=O)[O-])c(Cl)cc1Cl readoutnumber=0.129

----------
details: in DMF, 313.15 K
readoutKind: solubility (mole fraction)

smilesnotation=O=[N+]([O-])c1cc([N+](=O)[O-])c(Cl)cc1Cl readoutnumber=0.353

----------
conditions: in DMSO, 333.15 K
readoutKind: solubility (mole fraction)

smilesnotation=O=[N+]([O-])c1cc([N+](=O)[O-])c(Cl)cc1Cl readoutkind="solubility (mole fraction)" result=0.408

----------
settings: in ethyl acetate, 308.15 K
readoutKind: solubility (mole fraction)

smilesnotation=O=[N+]([O-])c1cc([N+](=O)[O-])c(Cl)cc1Cl readoutnumber=0.207

----------
conditions: in 1,2-dichloroethane, 313.15 K
readoutKind: solubility (mole fraction)

smilesnotation=O=[N+]([O-])c1cc([N+](=O)[O-])c(Cl)cc1Cl readoutnumber=0.199

----------
conditions: in toluene, 333.15 K
readoutKind: solubility (mole fraction)

smilesnotation=O=[N+]([O-])c1cc([N+](=O)[O-])c(Cl)cc1Cl result=0.413

----------
details: in DMF, 328.15 K
readoutKind: solubility (mole fraction)

smilesnotation=O=[N+]([O-])c1cc([N+](=O)[O-])c(Cl)cc1Cl readoutkind="solubility (mole fraction)" result=0.436

----------
conditions: in acetone, 293.15 K
readoutKind: solubility (mole fraction)

smilesnotation=O=[N+]([O-])c1cc([N+](=O)[O-])c(Cl)cc1Cl result=0.187

----------
details: in NMP, 333.15 K
readoutKind: solubility (mole fraction)

smilesnotation=O=[N+]([O-])c1cc([N+](=O)[O-])c(Cl)cc1Cl result=0.524

----------
settings: in chloroform, 293.15 K
readoutKind: solubility (mole fraction)

smilesnotation=O=[N+]([O-])c1cc([N+](=O)[O-])c(Cl)cc1Cl readoutkind="solubility (mole fraction)" readoutnumber=0.108

----------
conditions: in methanol, 298.15 K
readoutKind: solubility (mole fraction)

smilesnotation=O=[N+]([O-])c1cc([N+](=O)[O-])c(Cl)cc1Cl readoutnumber=0.00929

----------
conditions: in isopropanol, 328.15 K
readoutKind: solubility (mole fraction)

smilesnotation=O=[N+]([O-])c1cc([N+](=O)[O-])c(Cl)cc1Cl readoutnumber=0.0173

----------
conditions: in methanol, 333.15 K
readoutKind: solubility (mole fraction)

smilesnotation=O=[N+]([O-])c1cc([N+](=O)[O-])c(Cl)cc1Cl readoutnumber=0.0341

----------
conditions: in tetrachloromethane, 313.15 K
readoutKind: solubility (mole fraction)

smilesnotation=O=[N+]([O-])c1cc([N+](=O)[O-])c(Cl)cc1Cl readoutkind="solubility (mole fraction)" readoutnumber=0.0368

----------
conditions: in acetonitrile, 313.15 K
readoutKind: solubility (mole fraction)

smilesnotation=O=[N+]([O-])c1cc([N+](=O)[O-])c(Cl)cc1Cl readoutkind="solubility (mole fraction)" readoutnumber=0.217

----------
conditions: in chloroform, 308.15 K
readoutKind: solubility (mole fraction)

smilesnotation=O=[N+]([O-])c1cc([N+](=O)[O-])c(Cl)cc1Cl result=0.175

----------
details: in ethyl acetate, 328.15 K
readoutKind: solubility (mole fraction)

smilesnotation=O=[N+]([O-])c1cc([N+](=O)[O-])c(Cl)cc1Cl readoutnumber=0.306

----------
conditions: in NMP, 303.15 K
readoutKind: solubility (mole fraction)

smilesnotation=O=[N+]([O-])c1cc([N+](=O)[O-])c(Cl)cc1Cl readoutnumber=0.381

----------
conditions: in n-butanol, 303.15 K
readoutKind: solubility (mole fraction)

smilesnotation=O=[N+]([O-])c1cc([N+](=O)[O-])c(Cl)cc1Cl readoutnumber=0.00794

----------
settings: in isopropanol, 298.15 K
readoutKind: solubility (mole fraction)

smilesnotation=O=[N+]([O-])c1cc([N+](=O)[O-])c(Cl)cc1Cl readoutkind="solubility (mole fraction)" readoutnumber=0.00322

----------
conditions: in n-butanol, 313.15 K
readoutKind: solubility (mole fraction)

smilesnotation=O=[N+]([O-])c1cc([N+](=O)[O-])c(Cl)cc1Cl readoutkind="solubility (mole fraction)" readoutnumber=0.0128

----------
conditions: in toluene, 303.15 K
readoutKind: solubility (mole fraction)

smilesnotation=O=[N+]([O-])c1cc([N+](=O)[O-])c(Cl)cc1Cl readoutnumber=0.225

----------
settings: in toluene, 313.15 K
readoutKind: solubility (mole fraction)

smilesnotation=O=[N+]([O-])c1cc([N+](=O)[O-])c(Cl)cc1Cl readoutnumber=0.277

----------
settings: in DMF, 308.15 K
readoutKind: solubility (mole fraction)

smilesnotation=O=[N+]([O-])c1cc([N+](=O)[O-])c(Cl)cc1Cl readoutnumber=0.329

----------
settings: in dichloromethane, 288.15 K
readoutKind: solubility (mole fraction)

smilesnotation=O=[N+]([O-])c1cc([N+](=O)[O-])c(Cl)cc1Cl readoutnumber=0.121

----------
conditions: in dichloromethane, 298.15 K
readoutKind: solubility (mole fraction)

smilesnotation=O=[N+]([O-])c1cc([N+](=O)[O-])c(Cl)cc1Cl readoutkind="solubility (mole fraction)" readoutnumber=0.158

----------
conditions: in 1,2-dichloroethane, 303.15 K
readoutKind: solubility (mole fraction)

smilesnotation=O=[N+]([O-])c1cc([N+](=O)[O-])c(Cl)cc1Cl readoutkind="solubility (mole fraction)" result=0.156

----------
settings: in isopropanol, 333.15 K
readoutKind: solubility (mole fraction)

smilesnotation=O=[N+]([O-])c1cc([N+](=O)[O-])c(Cl)cc1Cl readoutkind="solubility (mole fraction)" readoutnumber=0.0223

----------
details: in toluene, 318.15 K
readoutKind: solubility (mole fraction)

smilesnotation=O=[N+]([O-])c1cc([N+](=O)[O-])c(Cl)cc1Cl readoutnumber=0.307

----------
details: in n-butanol, 333.15 K
readoutKind: solubility (mole fraction)

smilesnotation=O=[N+]([O-])c1cc([N+](=O)[O-])c(Cl)cc1Cl readoutnumber=0.0308

----------
conditions: in DMF, 333.15 K
readoutKind: solubility (mole fraction)

smilesnotation=O=[N+]([O-])c1cc([N+](=O)[O-])c(Cl)cc1Cl readoutnumber=0.469

----------
conditions: in 1,2-dichloroethane, 328.15 K
readoutKind: solubility (mole fraction)

smilesnotation=O=[N+]([O-])c1cc([N+](=O)[O-])c(Cl)cc1Cl readoutnumber=0.282

----------
conditions: in acetone, 323.15 K
readoutKind: solubility (mole fraction)

smilesnotation=O=[N+]([O-])c1cc([N+](=O)[O-])c(Cl)cc1Cl result=0.326

----------
settings: in DMSO, 308.15 K
readoutKind: solubility (mole fraction)

smilesnotation=O=[N+]([O-])c1cc([N+](=O)[O-])c(Cl)cc1Cl readoutnumber=0.241

----------
details: in NMP, 298.15 K
readoutKind: solubility (mole fraction)

smilesnotation=O=[N+]([O-])c1cc([N+](=O)[O-])c(Cl)cc1Cl readoutnumber=0.362
